Hello, the source for this data is ChEMBL document CHEMBL3868633, in case you need it.

Assay: Binding affinity to poly(rA).(rU) RNA duplex (unknown origin) assessed as thermal stability by measuring change in melting temperature at 5 uM by UV-Vis spectrophotometry
Labels assigned by ΔTm range: lower range: < 0.2 °C; middle range: ≥ 0.2 °C and < 0.7 °C; upper range: ≥ 0.7 °C

Example results:
{"columns": ["compound", "classification"],
 "data": [
  ["C#CCOc1ccc(-c2nc3ccc(-c4nc5ccc(N6CCN(C)CC6)cc5[nH]4)cc3[nH]2)cc1", "lower range"],
  ["CN1CCN(c2ccc3nc(-c4ccc5nc(-c6ccc(OCCCCCCCCOCc7cn(C[C@H]8O[C@@H](O[C@@H]9[C@@H](O)[C@H](N)C[C@H](N)[C@H]9O[C@H]9O[C@H](CN)[C@@H](O)[C@H](O)[C@H]9N)[C@H](O)[C@@H]8O[C@H]8OC(CN)[C@@H](O)[C@H](O)[C@H]8N)nn7)cc6)[nH]c5c4)[nH]c3c2)CC1 (stereo not given in full)", "upper range"],
  ["C#CCCCCCCCCCOc1ccc(-c2nc3ccc(-c4nc5ccc(N6CCN(C)CC6)cc5[nH]4)cc3[nH]2)cc1", "lower range"],
  ["C#CCOCCCCCCOc1ccc(-c2nc3ccc(-c4nc5ccc(N6CCN(C)CC6)cc5[nH]4)cc3[nH]2)cc1", "middle range"],
  ["CN1CCN(c2ccc3nc(-c4ccc5nc(-c6ccc(OCCCCCCCCCCOCc7cn(C[C@H]8O[C@@H](O[C@@H]9[C@@H](O)[C@H](N)C[C@H](N)[C@H]9O[C@H]9O[C@H](CN)[C@@H](O)[C@H](O)[C@H]9N)[C@H](O)[C@@H]8O[C@H]8OC(CN)[C@@H](O)[C@H](O)[C@H]8N)nn7)cc6)[nH]c5c4)[nH]c3c2)CC1 (stereo not given in full)", "upper range"],
  ["CN1CCN(c2ccc3[nH]c(-c4ccc5[nH]c(-c6ccc(O)cc6)nc5c4)nc3c2)CC1", "middle range"],
  ["C#CCOCCCCCCCCCCOc1ccc(-c2nc3ccc(-c4nc5ccc(N6CCN(C)CC6)cc5[nH]4)cc3[nH]2)cc1", "middle range"],
  ["CN1CCN(c2ccc3nc(-c4ccc5nc(-c6ccc(OCCCCOCc7cn(C[C@H]8O[C@@H](O[C@@H]9[C@@H](O)[C@H](N)C[C@H](N)[C@H]9O[C@H]9O[C@H](CN)[C@@H](O)[C@H](O)[C@H]9N)[C@H](O)[C@@H]8O[C@H]8OC(CN)[C@@H](O)[C@H](O)[C@H]8N)nn7)cc6)[nH]c5c4)[nH]c3c2)CC1 (stereo not given in full)", "upper range"],
  ["C#CCOCCCCCCCCCCCCOc1ccc(-c2nc3ccc(-c4nc5ccc(N6CCN(C)CC6)cc5[nH]4)cc3[nH]2)cc1", "lower range"],
  ["C#CCCCCOc1ccc(-c2nc3ccc(-c4nc5ccc(N6CCN(C)CC6)cc5[nH]4)cc3[nH]2)cc1", "lower range"]
]}

Exercise: Looking at "C#CCOCCCCOc1ccc(-c2nc3ccc(-c4nc5ccc(N6CCN(C)CC6)cc5[nH]4)cc3[nH]2)cc1" , which class would you pick?
Key: middle range

Exercise: Looking at "NC[C@@H]1O[C@H](O[C@H]2[C@@H](O)[C@H](O[C@@H]3[C@@H](O)[C@H](N)C[C@H](N)[C@H]3O[C@H]3O[C@H](CN)[C@@H](O)[C@H](O)[C@H]3N)O[C@@H]2CO)[C@H](N)[C@@H](O)[C@@H]1O" , which class would you pick?
Key: upper range
